# System: U2OS
# test name: relative viability EC50 (midpoint between 100% and the lowest measured viability); higher = less toxic
# condition summary: 72 h
reported endpoint: relative viability EC50

Consider the worked cases shown below.
# molecule, relative viability EC50
rows = [
    ("COc1ccc(CNC(=O)Nc2ncc([N+](=O)[O-])s2)cc1", "> 10 µM"),
    ("Nc1nc(Nc2ccc(S(N)(=O)=O)cc2)nn1C(=O)c1c(F)cccc1F", "3.41 µM"),
    ("CN1CCC[C@@H]1CCSc1ccc(O)cc1 [SIB-1553A]", "> 10 µM"),
    ("NCC(=O)N1C[C@H](NC(=O)c2ccccc2)C[C@H]1C(=O)O [danegaptide]", "> 10 µM"),
]

Consider the molecule shown here: O=C(O)C[CH2][Ge](=[O])[O][Ge](=[O])[CH2]CC(=O)O What is its recorded relative viability EC50?
> 10 µM

Consider the molecule shown here: Cc1nc(-c2cccnc2)sc1C(=O)Nc1ccccc1-c1cn2c(CN3CCOCC3)csc2n1 What is its recorded relative viability EC50?
> 10 µM

Consider the molecule shown here: O=C(C(c1ccccc1)c1ccccc1)N1CCN(CC(O)COc2cccc3ncccc23)CC1 (stereo not drawn) What is its recorded relative viability EC50?
> 10 µM

Consider the molecule shown here: CCSc1ccc2c(c1)N(CCCN1CCN(C)CC1)c1ccccc1S2 What is its recorded relative viability EC50?
> 10 µM
